# Tested on: Adenovirus (AdV)
# Procedure details: Impact of the drugs on the virus-induced cytopathy (MTT)
# Type: cell-based
# Experimental conditions: ADV 100 TCID50, Vero cells, about the maximal non-cytotoxic concentration, 72 hours
Measured antiviral effective rate (ER %), listed per entry.
// note: answer is a bare numeric in %

compound="CC(C)Cc1ccc(C(C)C(=O)O)cc1 (stereo not shown)" metric_name="antiviral effective rate (ER %)" numeric_readout=50.61
compound="CCOC(=O)C1=C[C@@H](OC(CC)CC)[C@H](NC(C)=O)[C@@H](N)C1 [Oseltamivir phosphate, oseltamivir phosphate]" metric_name="antiviral effective rate (ER %)" numeric_readout=10.31

Proceeding to the next compound to report its antiviral effective rate (ER %).
stdin: What measured antiviral effective rate (ER %) goes with `NC(=O)c1ncn([C@@H]2O[C@H](CO)[C@@H](O)[C@H]2O)n1` ?
stdout: 0.43
